tested on: MKL-1; experiment: qHTS assay to identify novel small-molecules to repurpose for Merkel cell carcinoma treatment (AID 1296009); settings: MCC and control cell lines, CellTiter-Glo viability, 72 h; series mostly up to 46 µM; note: nearly all actives have a fitted effect of over 60% in size; note: potency is the fitted concentration of half-maximal effect
Records with an inconclusive call do not appear. Calls of active or inactive are those of the source. Calls come from the whole dose curve; as a rule, active = well fitted inhibition curve with a large enough effect; inconclusive = small, poorly fitted or top-dose-only effect; inactive = flat fitted curve, though single readings scatter.

molecule: CCOC1OC(=O)C[C@H]1NC(=O)[C@@H]1CCCN1C(=O)[C@@H](NC(=O)c1ccc(N)c(Cl)c1)C(C)(C)C (stereo partly drawn)
Potency: inactive

molecule: NS(=O)(=O)c1cccc2c1C(=O)c1cccc(O)c1C2=O
Potency: 132 nM (active)

molecule: O=c1cc(CN2CCOCC2)occ1OCCCCCSc1ccnc2cc(C(F)(F)F)ccc12
Potency: inactive

---

assay: Quantitative High-Throughput drug screen in 47 multiple myeloma cell lines against the NCATS MIPE library collection: EJM_DSMZ cell viability assay (AID 1918926; note: nearly all actives have a fitted effect of over 30% in size); settings: EJM myeloma cell viability, CellTiter-Glo ATP, 48 h; series mostly up to 45.8 µM
Results filed as inconclusive are left out. Active and inactive are the calls of the source. Calls come from the whole dose curve; as a rule, active = well fitted cell-killing curve with a large enough effect; inconclusive = small, poorly fitted or top-dose-only effect, or effect the other way; inactive = no such curve, though single readings can be large or run the other way.
// one of Y = active, N = inactive, no free text

Enquiry: Hi team, can someone confirm the assay call for "CN(C)CCC=C1c2ccccc2COc2ccc(CC(=O)O)cc21" ?
Return: N

Enquiry: For this compound, state the assay outcome: "O=C(CCN1CCN(C(=O)OCc2cc(Cl)cc(Cl)c2)CC1)c1ccc2[nH]c(=O)oc2c1"
Return: N

Enquiry: What was the test verdict on "CC(=O)O[C@]1(C(C)=O)CC[C@@H]2[C@@H]3C[C@H](C)C4=CC(=O)CC[C@]4(C)[C@H]3CC[C@@]21C" ?
Return: Y

Enquiry: Status in this test for "CNC(=O)c1ccccc1Sc1ccc2c(C=Cc3ccccn3)n[nH]c2c1" ?
Return: Y

Enquiry: // return assay outcome for "O=C(N[C@@H](c1ccccc1)[C@@H]1CCCCN1)c1cccc(C(F)(F)F)c1Cl"
Return: Y

Enquiry: What outcome does the record of this test show for "c1ccc2c(-c3cnn4cc(-c5ccc(N6CCNCC6)cc5)cnc34)ccnc2c1" ?
Return: Y

Enquiry: Outcome? "N#CC1(c2ccc(NC(=O)c3cccnc3NCc3ccncc3)cc2)CCCC1"
Return: N

Enquiry: State the result this test recorded for C[C@]12CCC3c4ccc(O)cc4CCC3C1CCC2=O (stereo not given in full) .
Return: N

Enquiry: Kindly provide the recorded test outcome for the following compound: "O=c1cc(-c2ccccc2)oc2cc(O)cc(O)c12"
Return: N

Enquiry: Tell me the recorded outcome of this test for "Cc1nc(N)sc1-c1ccnc(Nc2ccc(N3CCOCC3)cc2)n1" .
Return: Y

Enquiry: Write down the call the test reported for this compound. Item: "O=C(CCCCCCC(=O)Nc1ccccc1)NO"
Return: Y

Enquiry: Lab log entry: "CC(C)(C)COc1ccc(-n2cc(C(=O)O)cn2)cc1C#N" — outcome as called in the assay?
Return: N

Enquiry: Could you please tell me the result logged for C[N+]1(C)[C@@H]2CC(OC(=O)[C@H](CO)c3ccccc3)C[C@H]1[C@H]1O[C@@H]12 (stereo not given in full) in this assay?
Return: N

Enquiry: Which outcome was entered for the compound "O=c1cc(-c2ccc(O)cc2)oc2cc(O)cc(O)c12" in this test?
Return: Y

Enquiry: Tell me the assay call for "CC(C)(C)OC(=O)N[C@H]1CCCCCC=C[C@@H]2C[C@@]2(C(=O)NS(=O)(=O)C2CC2)NC(=O)[C@@H]2C[C@@H](OC(=O)N3Cc4cccc(F)c4C3)CN2C1=O" please.
Return: N

Enquiry: What outcome does the record of this test show for "COc1ccc(-c2nc(N3CCOCC3)c3sc(CN(C)c4ncc(C(=O)NO)cn4)cc3n2)cn1" ?
Return: Y

Enquiry: Fill in: this test's call for CS(=O)c1ccc(-c2nc(-c3ccc(F)cc3)c(-c3ccncc3)[nH]2)cc1 (stereo not given) is ___
Return: Y

Enquiry: # outcome recorded in this test, key = "NS(=O)(=O)c1cccc2c1C(=O)c1cccc(O)c1C2=O"
Return: Y

Enquiry: GET /call?item= CC(C)C(C)C=CC(C)C1CCC2C3=CC=C4CC(O)CCC4(C)C3CCC21C (stereo not given) returns the recorded outcome of this test.
Return: N

Enquiry: Hi, sorry to bother you, what did the test record for CNC(=O)c1ccc2cc(C3(O)CCn4cncc43)ccc2c1 (stereo not given) ?
Return: N

Reference source: PubChem BioAssay (NCATS)
